Data credit: patent US8742106B2

biological target: human orexin 1 receptors (Homo sapiens (Human), UniProt O43613); test: Calcium Accumulation in Cells (FLIPR), antagonism of orexin A; settings: antagonism of orexin A, Cheng-Prusoff corrected; read-out: FLIPR hOx1R Ki
Sequence (O43613 whole entry): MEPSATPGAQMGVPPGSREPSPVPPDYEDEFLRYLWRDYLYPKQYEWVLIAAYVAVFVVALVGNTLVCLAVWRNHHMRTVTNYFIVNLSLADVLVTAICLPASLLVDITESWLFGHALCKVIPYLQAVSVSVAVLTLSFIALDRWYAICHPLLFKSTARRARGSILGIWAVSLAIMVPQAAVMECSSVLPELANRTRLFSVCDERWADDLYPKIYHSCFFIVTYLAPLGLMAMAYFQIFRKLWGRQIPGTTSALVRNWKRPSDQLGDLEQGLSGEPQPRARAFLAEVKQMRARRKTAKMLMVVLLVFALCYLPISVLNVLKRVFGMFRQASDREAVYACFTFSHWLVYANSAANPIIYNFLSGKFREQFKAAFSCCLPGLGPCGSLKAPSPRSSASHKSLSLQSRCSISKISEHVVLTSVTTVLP
Readout Name: pKi
Remember, pKi is on a log scale: it is -log10 of the molar concentration.

These recorded examples may help you get a feel for the data.
INSERT INTO assay_data (compound, numeric_readout) VALUES
  ('COc1ccnc(-c2nn(C)c3nc(OCC(=O)N[C@@H](C)c4ccc(C)cc4)cc(C)c23)n1', 8.00),
  ('COc1ccc(C(C)NC(=O)COc2cc(C(F)F)c3c(C4CC4)nn(C)c3n2)cn1 (stereo not shown)', 6.29);

Consider `Cn1nc(-c2cccc(F)c2)c2c(C(F)(F)F)cc(OCC(=O)N[C@H]3CCc4ccccc43)nc21` . Its measured pKi is 6.93

Consider `COc1ccnc(-c2nn(C)c3nc(OCC(=O)N[C@@H](C)c4ccc(C)cc4)cc(C)c23)c1` . Its measured pKi is 8.15

Consider COc1cccc(C(C)NC(=O)COc2cc(C(F)(F)F)c3c(-c4ccccc4)nn(C)c3n2)c1 (stereo not shown) . Its measured pKi is 7.70
